Every entry's value here was drawn from patent US12012412B2.

Assay: Solubility of Solid Form A and amorphous Compound X in various solvents at room temperature
Assay type: physicochemical
Conditions: water/MeOH, aqueous with cosolvent or surfactant or cyclodextrin, H2O-MeOH (Water/MeOH)
recordedEndpoint: solubility

// solubility value for C[C@@H]1CN(Cc2ncccn2)C[C@H]1c1nc2c(cnn2C2CCOCC2)c(=O)[nH]1 [Solid Form A] : > 34.2 mg/mL

###

Assay: Aqueous solubility of Solid Form A in biologically relevant pH conditions at 25° C.
Format: physicochemical
Settings: aqueous buffer, thermodynamic from solid; 100 mM Succinate buffer, pH 5.5, 25° C.
recordedEndpoint: solubility

// solubility value for C[C@@H]1CN(Cc2ncccn2)C[C@H]1c1nc2c(cnn2C2CCOCC2)c(=O)[nH]1 [Solid Form A] : > 52.8 mg/mL

###

Test: Particle size of batches of Solid Form A
Format: physicochemical
Details: batches of Solid Form A, milled or unmilled per batch; listed as A7
recordedEndpoint: Particle size D[v, 0.9] (µm)
Provide the reading as a plain figure in µm.

// Particle size D[v, 0.9] value for CC1CN(Cc2ncccn2)CC1c1nc2c(cnn2C2CCOCC2)c(=O)[nH]1 (stereo not shown) [A6] : 191

###

Test: Aqueous solubility of Solid Form A in biologically relevant pH conditions at 25° C.
Format: physicochemical
Settings: simulated gastric fluid, thermodynamic from solid; 0.01M HCl, pH 1.7, 25° C.
recordedEndpoint: solubility

// solubility value for C[C@@H]1CN(Cc2ncccn2)C[C@H]1c1nc2c(cnn2C2CCOCC2)c(=O)[nH]1 [Solid Form A] : > 56.6 mg/mL

###

Assay: Particle size of batches of Solid Form A
Format: physicochemical
Details: batches of Solid Form A, milled or unmilled per batch
Kindly state Particle size D[v, 0.1] for each of the entries shown.
Provide the reading as a plain figure in µm.

// Particle size D[v, 0.1] value for CC1CN(Cc2ncccn2)CC1c1nc2c(cnn2C2CCOCC2)c(=O)[nH]1 (centres unmarked) [A9] : 20.6

// Particle size D[v, 0.1] value for CC1CN(Cc2ncccn2)CC1c1nc2c(cnn2C2CCOCC2)c(=O)[nH]1 (centres unmarked) [A6] : 5.89

// Particle size D[v, 0.1] value for CC1CN(Cc2ncccn2)CC1c1nc2c(cnn2C2CCOCC2)c(=O)[nH]1 (centres unmarked) [A5] : 6.86

// Particle size D[v, 0.1] value for CC1CN(Cc2ncccn2)CC1c1nc2c(cnn2C2CCOCC2)c(=O)[nH]1 (centres unmarked) [A3] : 10.5

// Particle size D[v, 0.1] value for CC1CN(Cc2ncccn2)CC1c1nc2c(cnn2C2CCOCC2)c(=O)[nH]1 (centres unmarked) [A4] : 4.39

// Particle size D[v, 0.1] value for CC1CN(Cc2ncccn2)CC1c1nc2c(cnn2C2CCOCC2)c(=O)[nH]1 (centres unmarked) [A2] : 45.6

// Particle size D[v, 0.1] value for CC1CN(Cc2ncccn2)CC1c1nc2c(cnn2C2CCOCC2)c(=O)[nH]1 (centres unmarked) [A8] : 3.96

// Particle size D[v, 0.1] value for CC1CN(Cc2ncccn2)CC1c1nc2c(cnn2C2CCOCC2)c(=O)[nH]1 (centres unmarked) [A10] : 3.29

###

Assay: Organic solubility: gravimetric (TGA) solubility at 25° C.
Format: physicochemical
Details: water, thermodynamic from solid, H2O, read-out: Solubility
recordedEndpoint: solubility (mg/mL)
Provide the reading as a plain figure in mg/mL.

// solubility value for C[C@@H]1CN(Cc2ncccn2)C[C@H]1c1nc2c(cnn2C2CCOCC2)c(=O)[nH]1 [Solid Form A] : 35.3

###

Test: Aqueous solubility of Solid Form A in biologically relevant pH conditions at 25° C.
Format: physicochemical
Conditions: aqueous buffer, thermodynamic from solid; Phosphate buffered saline, pH 7.0, 25° C.
recordedEndpoint: solubility (mg/mL)
Provide the reading as a plain figure in mg/mL.

// solubility value for C[C@@H]1CN(Cc2ncccn2)C[C@H]1c1nc2c(cnn2C2CCOCC2)c(=O)[nH]1 [Solid Form A] : 42.1

###

Test: Solubility of Solid Form A and amorphous Compound X in various solvents at room temperature
Type: physicochemical
Details: water/EtOH, aqueous with cosolvent or surfactant or cyclodextrin, H2O-EtOH (Water/EtOH)
recordedEndpoint: solubility

// solubility value for C[C@@H]1CN(Cc2ncccn2)C[C@H]1c1nc2c(cnn2C2CCOCC2)c(=O)[nH]1 [Solid Form A] : > 29.8 mg/mL

###

Test: Mechanical properties of batches of Solid Form A
Type: physicochemical
Conditions: lots of Solid Form A; A2 and A9 unmilled, A3 and A6/A7 milled
recordedEndpoint: Brittle/viscoelastic bonding index, Rating

molecule="CC1CN(Cc2ncccn2)CC1c1nc2c(cnn2C2CCOCC2)c(=O)[nH]1 (stereo not shown) [A2]" result=Poor
molecule="CC1CN(Cc2ncccn2)CC1c1nc2c(cnn2C2CCOCC2)c(=O)[nH]1 (stereo not shown) [A6/A7]" result=Poor
molecule="CC1CN(Cc2ncccn2)CC1c1nc2c(cnn2C2CCOCC2)c(=O)[nH]1 (stereo not shown) [A9]" result=Poor

###

Kindly state Particle size D[4, 3] for each of the entries shown.
Assay: Particle size of batches of Solid Form A
Assay type: physicochemical
Details: batches of Solid Form A, milled or unmilled per batch

// Particle size D[4, 3] value for CC1CN(Cc2ncccn2)CC1c1nc2c(cnn2C2CCOCC2)c(=O)[nH]1 (centres unmarked) [A8] : 48.6 μm

// Particle size D[4, 3] value for CC1CN(Cc2ncccn2)CC1c1nc2c(cnn2C2CCOCC2)c(=O)[nH]1 (centres unmarked) [A3] : 60.2 μm

// Particle size D[4, 3] value for CC1CN(Cc2ncccn2)CC1c1nc2c(cnn2C2CCOCC2)c(=O)[nH]1 (centres unmarked) [A10] : 49.5 μm

// Particle size D[4, 3] value for CC1CN(Cc2ncccn2)CC1c1nc2c(cnn2C2CCOCC2)c(=O)[nH]1 (centres unmarked) [A2] : 144 μm

// Particle size D[4, 3] value for CC1CN(Cc2ncccn2)CC1c1nc2c(cnn2C2CCOCC2)c(=O)[nH]1 (centres unmarked) [A6] : 78.6 μm

// Particle size D[4, 3] value for CC1CN(Cc2ncccn2)CC1c1nc2c(cnn2C2CCOCC2)c(=O)[nH]1 (centres unmarked) [A4] : 24.1 μm

// Particle size D[4, 3] value for CC1CN(Cc2ncccn2)CC1c1nc2c(cnn2C2CCOCC2)c(=O)[nH]1 (centres unmarked) [A5] : 89.2 μm

// Particle size D[4, 3] value for CC1CN(Cc2ncccn2)CC1c1nc2c(cnn2C2CCOCC2)c(=O)[nH]1 (centres unmarked) [A9] : 195 μm

###

Test: Organic solubility: gravimetric (TGA) solubility at 25° C.
Assay type: physicochemical
Settings: organic solvent or mixture, thermodynamic from solid, MeCN, read-out: Solubility
recordedEndpoint: solubility (mg/mL)
Provide the reading as a plain figure in mg/mL.

// solubility value for C[C@@H]1CN(Cc2ncccn2)C[C@H]1c1nc2c(cnn2C2CCOCC2)c(=O)[nH]1 [Solid Form A] : 47.8

###

Experiment: Mechanical properties of batches of Solid Form A
Type: physicochemical
Conditions: lots of Solid Form A; A2 and A9 unmilled, A3 and A6/A7 milled
recordedEndpoint: Tensile strength, Rating

compound="CC1CN(Cc2ncccn2)CC1c1nc2c(cnn2C2CCOCC2)c(=O)[nH]1 (stereo not shown) [A2]" result=Low
compound="CC1CN(Cc2ncccn2)CC1c1nc2c(cnn2C2CCOCC2)c(=O)[nH]1 (stereo not shown) [A6/A7]" result=Low

###

Test: Aqueous solubility of Solid Form A in biologically relevant pH conditions at 25° C.
Type: physicochemical
Conditions: aqueous buffer, thermodynamic from solid; 100 mM Succinate buffer, pH 4.0, 25° C.
recordedEndpoint: solubility

// solubility value for C[C@@H]1CN(Cc2ncccn2)C[C@H]1c1nc2c(cnn2C2CCOCC2)c(=O)[nH]1 [Solid Form A] : > 58.6 mg/mL
